meta.source: ChEMBL document CHEMBL2177021

Test: Cytotoxicity against human HL60R cells overexpressing Pgp incubated for 72 hrs by MTS assay
observable: IC50 (nM)
One number for each entry, in nM.

Check out these entries, answers already filled in.
# smiles representation, observable, observed value
data = [
    ("COc1cc(OC)c2c(c1)O[C@@]1(c3ccc(Br)cc3)[C@H](c3cccc(F)c3)C[C@H](NC(=O)CN(C)C)[C@@]21O", "IC50", 5.6),
    ("CCC(=O)N[C@H]1C[C@@H](c2cccc(F)c2)[C@]2(c3ccc(Br)cc3)Oc3cc(OC)cc(OC)c3[C@]12O", "IC50", 4.9),
]

Now for the compound whose IC50 we want.
Query :: What value of measured IC50 is listed for COc1cc(OC)c2c(c1)O[C@@]1(c3ccc(Br)cc3)[C@H](c3cccc(F)c3)C[C@H](NC(C)=O)[C@@]21O ?
Result :: 7.1

----------
Give IC50 for every item shown.
Assay: Cytotoxicity against human HL60R cells overexpressing Pgp incubated for 72 hrs by MTS assay
Answers are plain numbers, in nM.

Record excerpt, results attached:
# smiles representation, endpoint unit, IC50
rows = [
    ("COC(=O)[C@H]1[C@@H](O)[C@@]2(O)c3c(OC)cc(OC)cc3O[C@@]2(c2ccc(Br)cc2)[C@@H]1c1cccc(F)c1", "nM", 14),
    ("COc1ccc([C@@]23Oc4cc(OC)cc(OC)c4[C@]2(O)[C@H](O)C[C@H]3c2cccc(F)c2)cc1", "nM", 60),
    ("COc1cc(OC)c2c(c1)O[C@@]1(c3ccc(Br)cc3)[C@H](c3ccccc3)C[C@H](NC=O)[C@@]21O", "nM", 1.7),
    ("COc1cc(OC)c2c(c1)O[C@@]1(c3ccc(Br)cc3)[C@H](c3ccccc3)C[C@@H](O)[C@@]21O", "nM", 4.5),
]

Okay, now this compound:
Query :: Which IC50 reading was recorded for the compound COc1cc(OC)c2c(c1)O[C@@]1(c3ccc(Br)cc3)[C@H](c3cccc(F)c3)C[C@H](NC(=O)N(C)C)[C@@]21O ?
Result :: 2.2

----------
Assay: Cytotoxicity against human HL60R cells overexpressing Pgp incubated for 72 hrs by MTS assay
observable: pIC50
Numbers only, as −log10 of the molar value.

# smiles representation, pIC50
measured = [
    ("COC(=O)[C@H]1[C@@H](O)[C@@]2(O)c3c(OC)cc(OC)cc3O[C@@]2(c2ccc(Cl)cc2)[C@@H]1c1ccccc1", 7.89),
    ("CC(=O)O[C@@]12CO[C@@H]1C[C@H](O)[C@@]1(C)C(=O)[C@H](O)C3=C(C)[C@@H](OC(=O)[C@H](O)[C@@H](NC(=O)OC(C)(C)C)c4ccccc4)C[C@@](O)([C@@H](OC(=O)c4ccccc4)[C@H]21)C3(C)C", 6.27),
    ("COC(=O)[C@H]1[C@@H](O)[C@@]2(O)c3c(OC)cc(OC)cc3O[C@@]2(c2ccc(OC)cc2)[C@@H]1c1cccc(F)c1", 7.55),
]

Query :: Returns the measured pIC50 for the input molecule. Input: COc1cc(OC)c2c(c1)O[C@@]1(c3ccc(Cl)cc3)[C@H](c3ccccc3)C[C@@H](O)[C@@]21O
Result :: 8.62
